Experiment: In vivo test of rats: pharmacokinetics after oral administration
Details: male, SD, rat, 10 mg/kg, oral administration of dezocine in rats, dose of dezocine 10mpk
measured quantity: AUC (ng·h/mL)

| entry smiles | measured quantity | unit abbreviation | readout number |
| --- | --- | --- | --- |
| C[C@@]12CCCCC[C@@H](Cc3ccc(O)cc31)[C@@H]2N | AUC | ng·h/mL | 58.6 |
